Reference source for all entries: PubChem BioAssay (NCI)

The following compounds are listed with their measured TGI values.
Tested on: SNB-78 CNS
Assay: NCI tumour cell line growth inhibition, 48 h

Molecule | TGI
Nc1nc(CC2(O)CCCCC2)cc(-c2ccccc2)n1 | > 100 µM
COc1cc(/C=C2\Cc3ccccc3C2=O)cc(OC)c1OC | > 100 µM
COc1ccc(/C=C2\CCc3ccccc3C2=O)cc1OC | > 100 µM

====

System: SK-MEL-28 melanoma
Assay: NCI tumour cell line growth inhibition, 48 h
Reported endpoint: TGI

Compound | Reported endpoint | Experimental result
CCOC(=O)c1csc(-c2nc(CCNC(=O)c3ccccc3)sc2Cl)n1 | TGI | > 100 µM
Cc1ccc(-c2cc(=O)c3cc(C)c(C)c(C(=O)O)c3o2)cc1[N+](=O)[O-] | TGI | > 100 µM
COC(=O)c1ccc(/C=C/S(=O)(=O)c2ccccc2)cc1 | TGI | > 100 µM
Nc1nc(Cc2ccccc2)nc(Cc2ccccc2)c1-c1ccccc1 | TGI | > 100 µM
N/C(=N\N=C\c1ccc(O)c(O)c1)NO | TGI | > 100 µM
O=c1oc2ccccc2n1CCCn1c(=O)oc2ccccc21 | TGI | > 100 µM
CNC(=S)N(C1CCCCC1)C1CCCCC1 | TGI | > 100 µM
CCC(C)(C)NS(=O)(=O)c1ccccc1 | TGI | > 100 µM
CN(C)c1c(C2CC(O)C(CO)O2)c(=O)c1=O (stereo unspecified) | TGI | > 100 µM
CC(=O)Oc1cc(Cl)c(OC(C)=O)c2c(OC(C)=O)c(C)c(O[Si](C)(C)C(C)(C)C)cc12 | TGI | 11.9 µM
CC(c1ccccc1)C(O)S(=O)(=O)O (stereo unspecified) | TGI | > 100 µM
CCCCN1CCC(O)(c2cc(C(=O)O)[nH]c2-c2cc(C)no2)C1=O (stereo unspecified) | TGI | > 100 µM
CCCCCCC/C=C1\CCC(CN(C)C)C1=O (stereo unspecified) | TGI | 31 µM
CN1CCN(c2ccc(-c3cccc(CN4CCOCC4)c3)cc2NC(=O)c2c[nH]c(=O)cc2C(F)(F)F)CC1 | TGI | > 100 µM
N[C@@H](Cc1ccc2oc3cc(=O)c4ccccc4c-3nc2c1)C(=O)O | TGI | > 100 µM
CCSc1nc(C)nc2c1sc1nc3ccccc3n12 | TGI | > 100 µM
CO/N=C(\C(=O)[N-][n+]1cnn(CC(=O)O)c1)c1csc(N)n1 | TGI | > 10 µM
O=C(NNC(=O)c1c(Cl)c(Cl)c(Cl)c(Cl)c1-c1nc2ccccc2[nH]1)c1ccc(Cl)cc1 | TGI | > 100 µM
O=C1c2cc([N+](=O)[O-])sc2C(=O)c2cc([N+](=O)[O-])sc21 | TGI | 8.3 µM
COc1ncc(C#CC(=O)c2ccccc2)c(OC)n1 | TGI | 11.4 µM
C[C@H]1[C@H](C)CC[C@]2(C(=O)OC3OC(CO)C(O)C(O)C3O)CC[C@]3(C)C(=CC[C@@H]4[C@@]5(C)C[C@@H](O)[C@@H]6OC(=O)c7cc(O)c(O)c(O)c7-c7c(cc(O)c(O)c7O)C(=O)OC[C@]6(CO)[C@@H]5CC[C@]43C)[C@H]12 (stereo partly specified) | TGI | > 100 µM
